Molecular target: recombinant human MAO-A (Homo sapiens)
Sequence (P21397 1-527): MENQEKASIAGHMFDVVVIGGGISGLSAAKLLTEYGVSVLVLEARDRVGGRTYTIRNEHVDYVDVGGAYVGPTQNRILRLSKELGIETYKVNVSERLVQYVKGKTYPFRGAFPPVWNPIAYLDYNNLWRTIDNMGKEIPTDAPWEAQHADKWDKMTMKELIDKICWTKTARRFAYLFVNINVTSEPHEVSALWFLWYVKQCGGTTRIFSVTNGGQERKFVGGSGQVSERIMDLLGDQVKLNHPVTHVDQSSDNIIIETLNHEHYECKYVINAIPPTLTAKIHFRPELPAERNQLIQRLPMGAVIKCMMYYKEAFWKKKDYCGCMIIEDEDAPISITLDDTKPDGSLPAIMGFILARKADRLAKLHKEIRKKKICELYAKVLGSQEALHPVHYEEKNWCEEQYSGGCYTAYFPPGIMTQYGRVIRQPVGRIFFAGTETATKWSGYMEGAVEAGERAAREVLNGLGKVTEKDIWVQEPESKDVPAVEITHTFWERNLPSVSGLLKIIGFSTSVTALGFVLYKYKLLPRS
Experiment: Enzyme kinetics and mechanism of inhibition with MAO-A
Assay type: biochemical
Consider the following compounds; for each one, report its pKi.
Keep it numeric: pKi is minus log10 of the concentration in mol/L.

Req: Find the recorded pKi belonging to O=c1c(O)c(-c2ccc(O)c(O)c2)oc2cc(O)cc(O)c12 and report it.
Resp: 6.54

Req: Item under review: O=c1c(O)c(-c2cc(O)c(O)c(O)c2)oc2cc(O)cc(O)c12 . Reported pKi?
Resp: 5.65

====

Target: recombinant human MAO-B (Homo sapiens)
Sequence (P27338 1-520): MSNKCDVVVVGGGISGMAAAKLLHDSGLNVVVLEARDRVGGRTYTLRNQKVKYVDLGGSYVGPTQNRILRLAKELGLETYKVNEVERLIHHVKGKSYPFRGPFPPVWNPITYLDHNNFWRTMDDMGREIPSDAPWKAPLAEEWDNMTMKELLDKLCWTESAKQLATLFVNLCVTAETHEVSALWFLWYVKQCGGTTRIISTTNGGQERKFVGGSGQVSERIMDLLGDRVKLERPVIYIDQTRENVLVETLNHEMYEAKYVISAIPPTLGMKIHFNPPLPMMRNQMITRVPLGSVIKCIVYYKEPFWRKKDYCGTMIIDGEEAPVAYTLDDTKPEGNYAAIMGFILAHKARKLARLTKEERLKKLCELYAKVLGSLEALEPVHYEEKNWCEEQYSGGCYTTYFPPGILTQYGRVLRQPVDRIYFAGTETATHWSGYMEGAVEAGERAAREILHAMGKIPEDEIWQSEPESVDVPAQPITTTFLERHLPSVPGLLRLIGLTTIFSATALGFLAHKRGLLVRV
Test: Fluorometric kynuramine deamination assay, MAO-B inhibition
I'd appreciate it if you could supply pIC50 values for the items below.
pIC50 (log units): -log10 of the concentration in mol/L.

Req: Quick check: pIC50 of O=c1c(O)c(-c2ccc(O)c(O)c2)oc2cc(O)cc(O)c12 ?
Resp: 4.55

Req: Dear colleague, I am looking for the recorded pIC50 of the following molecule: O=c1c(O)c(-c2cc(O)c(O)c(O)c2)oc2cc(O)cc(O)c12
Resp: 4.23

The origin of these recorded values is paper PMC5947877.
